- ASSAYED TARGET: T1, Lsb3, P43603
- T1 sequence (P43603 385-451, looked up): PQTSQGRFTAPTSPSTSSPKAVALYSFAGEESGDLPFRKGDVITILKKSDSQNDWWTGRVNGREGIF
- TEST METHOD NOTES: SPOT array
- CONDITION PARAMETERS: median of control spots 406
MEASUREMENT LABEL: SPOT intensity

binder=FPPKRKPLLRPQRSD observed_value=48
binder=QPPLPSSAPPIPTSH observed_value=0
binder=DGNEEKPLLPTRPNK observed_value=493
binder=KTKQQKPAIPQKKSF observed_value=4
binder=QLMKNLPKIPLLNDI observed_value=21
binder=QRKSLRRPTLSKPAV observed_value=3
binder=LLLLFVPDSPYDPAI observed_value=0

Data credit: paper PMC2756588
